# TARGET_DESC: HLA-A03.01 (Homo sapiens, UniProt P04439)
# EXPERIMENT_SUMMARY: Class I MHC peptide binding affinity (displacement of radiolabeled reference peptide)
# CONDITIONS: allele A03.01; read-out: Observed Affinity (IC50; (nM))
Where a SMILES comes first, the peptide text is derived from it.
QUANTITY_MEASURED: IC50

CC(C)C[C@H](NC(=O)[C@H](Cc1ccccc1)NC(=O)[C@H](CO)NC(=O)[C@H](CC(C)C)NC(=O)[C@H](CS)NC(=O)[C@H](CO)NC(=O)[C@H](Cc1ccccc1)NC(=O)[C@H](CC(C)C)NC(=O)[C@@H](N)CCCCN)C(=O)O (H-KLFSCLSFL-OH; N-terminus and C-terminus assumed)	308 nM

// next entry
Ask: Return reported IC50; argument: CC(C)C[C@H](NC(=O)[C@H](C)N)C(=O)N[C@@H](Cc1ccccc1)C(=O)N[C@@H](Cc1ccccc1)C(=O)N[C@@H](Cc1ccccc1)C(=O)N[C@@H](Cc1ccccc1)C(=O)N[C@@H](Cc1ccccc1)C(=O)N[C@@H](CCC(=O)O)C(=O)N[C@H](C(=O)N[C@@H](CCCCN)C(=O)O)[C@@H](C)O (H-ALFFFFFETK-OH; N-terminus and C-terminus assumed)
Result: 216 nM

* * *

Listing of recorded IC50 by entry.
# TARGET_DESC: HLA-A02.01 (Homo sapiens, UniProt P04439, D140Y/D185E/D98H/E176V/E277Q/G131W/G231S/I119V/I121R/I166T/I218V/L300P/L318F/N151K/N90K/P208A/P217A/Q86G/Q94H/R138H/R169H/T345S)
# EXPERIMENT_SUMMARY: Class I MHC peptide binding affinity (displacement of radiolabeled reference peptide)
# CONDITIONS: allele A02.01; read-out: Observed Affinity (IC50; (nM))
Where a SMILES comes first, the peptide text is derived from it.
Output spec: scalar in nM, unitless text.

Ask: Return reported IC50; argument: CSCC[C@H](N)C(=O)N[C@@H](CO)C(=O)N[C@H](C(=O)N[C@@H](CS)C(=O)N[C@@H](Cc1ccccc1)C(=O)N[C@@H](Cc1ccccc1)C(=O)N[C@@H](Cc1ccccc1)C(=O)N[C@@H](Cc1ccccc1)C(=O)N[C@@H](CO)C(=O)N[C@H](C(=O)O)C(C)C)C(C)C (H-MSVCFFFFSV-OH; N-terminus and C-terminus assumed)
Result: 1710

Ask: Next record, please: CC[C@H](C)[C@H](NC(=O)[C@H](CCSC)NC(=O)[C@@H](NC(=O)CNC(=O)[C@@H](NC(=O)[C@@H](N)CCC(N)=O)[C@@H](C)O)C(C)C)C(=O)N[C@@H](CS)C(=O)N[C@@H](C)C(=O)N[C@@H](Cc1ccc(O)cc1)C(=O)N[C@@H](CC(C)C)C(=O)O (H-QTGVMICAYL-OH; N-terminus and C-terminus assumed)
Result: 9760

Ask: Next record, please: CC(C)C[C@H](NC(=O)[C@@H](N)CC(C)C)C(=O)NCC(=O)N[C@@H](CCCNC(=N)N)C(=O)N[C@@H](CC(N)=O)C(=O)N[C@@H](CO)C(=O)N[C@@H](Cc1ccccc1)C(=O)N[C@@H](CCC(=O)O)C(=O)N[C@H](C(=O)N[C@@H](CS)C(=O)O)C(C)C (H-LLGRNSFEVC-OH; N-terminus and C-terminus assumed)
Result: 2080
